tested on: MLKL phosphorylation in HT29-L23 human colorectal adenocarcinoma cells; assay: MLKL Phosphorylation High-Content Assay; format: cell-based; details: Homo sapiens, x marks IC50 class 20-200 nM, read-out: pMLKL cell activity 20-200 nM
Endpoint Label: IC50

[2H]C([2H])(NC(=O)c1cc(-c2ccn3nc(N)nc3c2)cnc1Cl)c1cc(OC(F)(F)F)ccc1F; 20 to 200 nM
[2H]C([2H])(NC(=O)c1cc(-c2ccn3nc(N)nc3c2)cnc1OC)c1ccccc1OC(F)(F)F; 20 to 200 nM
COc1nc(C)c(-c2ccn3nc(N)nc3c2)cc1C(=O)NCc1cc(F)ccc1OC(F)(F)F; 20 to 200 nM
Cc1ncc(C(=O)NCc2cc(F)cc(F)c2OCC2CCCC2)cc1-c1ccn2nc(N)nc2c1; 20 to 200 nM
Cc1ncc(-c2ccn3nc(N)nc3c2)cc1C(=O)NCc1cc(F)cc(F)c1OCC1CCCC1; 20 to 200 nM
COc1ncc(-c2ccn3nc(N)nc3c2)cc1C(=O)NCc1ncccc1OCC1CCCC1; 20 to 200 nM
Cc1ccc(-c2ccn3nc(N)nc3c2)nc1C(=O)NCC[C@@H](O)c1ccc(Cl)cc1; 20 to 200 nM
COc1ncc(-c2ccn3nc(N)nc3c2)cc1C(=O)NCc1c(F)cc(F)cc1OCC1CCCC1; 20 to 200 nM
Nc1nc2cc(-c3cnc(Cl)c(C(=O)NCc4cccc(OCC5CC5)c4)c3)ccn2n1; 20 to 200 nM
CCOc1ncc(-c2ccn3nc(N)nc3c2)cc1C(=O)NCc1ccccc1SC(C)C; 20 to 200 nM
COc1nc(C)c(-c2ccn3nc(N)nc3c2)cc1C(=O)NCc1c(F)cc(F)cc1OCC1CCCC1; 20 to 200 nM
Cc1ncc(-c2ccn3nc(N)nc3c2)cc1C(=O)NCc1cc(F)cc(F)c1OC1CCCOC1 (stereo not shown); 20 to 200 nM
COc1ncc(-c2ccn3nc(N)nc3c2)cc1C(=O)NCc1cc(F)cc(F)c1OC1CC1; 20 to 200 nM
[2H]C([2H])([2H])Oc1ncc(-c2ccn3nc(N)nc3c2)cc1C(=O)NC([2H])([2H])c1cc(OC(F)(F)F)ccc1F; 20 to 200 nM
CCOc1ncc(-c2ccn3nc(N)nc3c2)cc1C(=O)NCc1ccccc1OCC1CC1; 20 to 200 nM
COc1ncc(-c2ccn3nc(N)nc3c2)cc1C(=O)NCc1ccc(F)cc1OCC1CC1; 20 to 200 nM
